Please go through the items and note down their TGI.
System: A498 renal
MEASUREMENT DESCRIPTION: NCI tumour cell line growth inhibition, 48 h

CCOc1cc2c(cc1O)CC[C@@H]1[C@@H]2CC[C@]2(C)C(N)CC[C@@H]12 (stereo partly drawn) | 18.7 µM
NC1=C(c2nc(-c3ccccc3)cs2)C(c2ccc(Br)cc2)c2c(c3ccccc3oc2=O)O1 (stereo not drawn) | > 150 µg/mL
C=CC[C@@]1([C@H](C=C)COCc2ccc(OC)cc2)CC[C@]2(C)OC(C)(C)[C@@H](c3ccccc3)N2C1=S | > 100 µM
CN(C)CCCNc1c(C#N)[n+]([O-])c2cc(Cl)ccc2[n+]1[O-] | > 52.4 µM
CCCCCCCCCCCCOC1C(C(COC2OC(C3COC(C)(C)O3)C3OC(C)(C)OC23)NC(=O)NS(=O)(=O)c2ccccc2)OC2OC(C)(C)OC21 (stereo not drawn) | 11.9 µM

I would be grateful if you could provide TGI for each of the following entries.
1. c1ccc2cc3[s+]snc3cc2c1
2. CCN(C(C)=O)c1cnc(/C=N/NC(N)=S)c2ccccc12
3. C[C@]12CCC(=O)C(O)=C1CC[C@@H]1C2CC[C@]2(C)Nc3c(cnn3-c3ccccc3)CC12 (stereo partly drawn)
4. COc1cc(Cl)cc(-c2nn(-c3cccc(NC(=O)Nc4cc(C(F)(F)F)cc(C(F)(F)F)c4)c3)cc2-c2ccncc2)c1

## Result
> 100 µM
> 91.6 µM
> 100 µM
4.81 µM

I would be grateful if you could provide TGI for each of the following entries.
1. Cc1c(C(=O)CC(=O)C(=O)Nc2ccc(Cl)cc2)[n+](=O)c2ccccc2n1[O-]
2. COc1ccc(CC(=O)NCCc2ccc(OC)c(OC)c2)cc1Br
3. O=C(O)c1cc(-c2ccncc2)nc2ccccc12
4. CCCC/C=C1\CCC(C)(CN(C)C)C1=O (stereo not drawn)
5. CN(C)CC1CCCC(CN(C)C)C1=NOC(=O)c1ccccc1 (stereo not drawn)

## Result
["> 100 µM", "> 100 µM", "> 100 µM", "> 100 µM", "> 100 µM"]

I would be grateful if you could provide TGI for each of the following entries.
1. O=C(O)CCSC(=O)Nc1ccccc1F
2. O=C(c1ccccc1)[C@@H]1C[C@H](Sc2ccccc2)c2cc(Cl)ccc2N1

## Result
> 100 µM
48.1 µM

I would be grateful if you could provide TGI for each of the following entries.
1. Cc1ccc(/C=C2\CN(C)CC3C2=NN(c2ccccc2)C3c2ccc(C)cc2)cc1 (stereo not drawn)
2. O=C1C=CC[C@H](/C=C/c2ccccc2)O1

## Result
1. > 100 µM
2. 6.91 µM
